assay: Resazurin cell viability (cell toxicity) assay; conditions: African green monkey, Vero B4 cells
Observable: viability at 24 h, 100 µM (%)

compound="NC(=O)c1nc(F)c[nH]c1=O [Favipiravir, reference compound]" recorded_value=97.9

* * *

Overview of recorded EC90 for various molecules
system: rZIKV-ZsGreen; assay: microbe, parasite or virus in culture; format: cell-based, Zika virus; conditions: Zika virus, Vero, 24 h, read-out: Inhibition Efficacy EC90
Observable: EC90 (µM)

molecule="O=C(Nc1cc(Cl)ccc1C(=O)Nc1ccccc1C(=O)O)c1ccccc1F [Compound 35f]" recorded_value=14.9
molecule=O=C(Nc1cc(F)c(F)cc1C(=O)Nc1ccccc1C(=O)O)c1ccccc1F recorded_value=1.2
molecule=O=C(Nc1ccccc1C(=O)Nc1ccccc1C(=O)O)c1ccccc1 recorded_value=3.3
molecule="NC(=O)c1ncn([C@@H]2O[C@H](CO)[C@@H](O)[C@H]2O)n1 [Ribavirin, reference compound]" recorded_value=114
